Tested on: I3CT1^8098 transgenic line (S30 overexpressing)
assay_comment: Root growth-rate inhibition by I3C, transgenic line I3CT1^8098
Format: in vivo, Arabidopsis thaliana
condition_parameters: I3CT1^8098 (printed I3CR1^8098), read-out: I3C concentration at which growth rate was inhibited by 50%
reported_metric: pIC50
# log scale: pIC50 equals minus log10 of the concentration in mol/L

Prompt: Which pIC50 value is on record for OCc1c[nH]c2ccccc12 ?
Response: 3.70
